# run-description: Toxicokinetics, 14-day intranasal study in dogs (Study 62959)
# Format: in vivo
# condition-info: male, Beagle, dog, plasma, inhaled or intranasal, 0.8 mg/kg/day, Day 14, Male
readout: Cmax
Param answer (str): number followed by unit.

*Q* Bench note: what Cmax did COc1ccc2[nH]cc(CCN(C)C)c2c1 show?
*A* 0.411 µg/mL

###

# run-description: Toxicokinetics, 14-day intranasal study in rats (Study 700041)
# Assay type: in vivo
# condition-info: male, Sprague Dawley, rat, plasma, inhaled or intranasal, 5 mg/kg/day, Day 1, Male, read-out: AUC0-Tlast [SE]
# Experimental: The animals were monitored for mortality, clinical signs, respiratory measurements, body weights, food consumption, and body temperature. Ophthalmoscopic examinations and respiratory function tests were performed on all animals at scheduled timepoints. Clinical pathology assessments (hematology, coagulation, clinical chemistry, and urinalysis) were evaluated at termination. […] Following dosing, the Main animals were euthanized and subjected to a complete necropsy examination on Day 15. […]
readout: AUC(0-t) (ng·h/mL)
Give bare numbers, in ng·h/mL.

*Q* Bench note: what AUC(0-t) did COc1ccc2[nH]cc(CCN(C)C)c2c1 show?
*A* 39.9
